These entries and their values trace back to patent US20250313563A1.

Assign pIC50 to each entry below.
molecular target: GSK3b (GST-full length GSK3b) (Homo sapiens (Human), UniProt P49841); experiment: GSK3b TR-FRET kinase assay; type: biochemical; conditions: 1 nM GSK3b, 2 μM ATP, 30 minute preincubation, Table 16; read-out: GSK3-B TR-FRET BIOCHEMICAL (TR-FRET)
Sequence (P49841 whole entry): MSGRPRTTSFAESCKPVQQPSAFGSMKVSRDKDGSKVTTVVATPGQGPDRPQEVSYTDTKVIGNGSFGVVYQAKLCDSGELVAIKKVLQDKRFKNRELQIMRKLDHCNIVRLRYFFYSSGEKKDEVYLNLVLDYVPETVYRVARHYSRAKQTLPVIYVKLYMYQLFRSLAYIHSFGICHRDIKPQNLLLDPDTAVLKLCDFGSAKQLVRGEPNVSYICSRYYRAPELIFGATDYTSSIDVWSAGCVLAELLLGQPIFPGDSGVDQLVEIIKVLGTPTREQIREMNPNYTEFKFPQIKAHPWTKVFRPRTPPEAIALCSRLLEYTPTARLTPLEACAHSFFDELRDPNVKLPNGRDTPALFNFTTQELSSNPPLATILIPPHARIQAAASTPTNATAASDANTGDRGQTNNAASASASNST
pIC50: −log10 of the molar value.

Please review the entries below; each comes with its answer.
Cc1nc(C)c(S(=O)(=O)N2CCC3(CC2)C2=C(CC(C)(C)CC2=O)Nc2n[nH]cc23)s1 : ≥ 7.00
CC[C@]1(c2ccccc2)C2=C(C[C@@]3(CCNC3=O)CC2=O)Nc2n[nH]cc21 : < 5.30
CC1(C)CC(=O)C2=C(C1)Nc1n[nH]cc1C21CN(C2COC2)C1 : 5.30 to 6.00
Cc1ncc(S(=O)(=O)N2CCC3(CC2)C2=C(CC(C)(C)CC2=O)Nc2n[nH]cc23)s1 : ≥ 7.00

Please state, for each entry, its recorded pIC50.
1. CC1(C)CC(=O)C2=C(C1)Nc1n[nH]cc1C21CN(S(=O)(=O)Cc2ccccc2)C1
2. CCC1(c2cccc(-c3ccnc(CCO)c3)c2)C2=C(CC(C)(C)CC2=O)Nc2n[nH]cc21 (stereo not shown)
3. CCn1ccc(S(=O)(=O)N2CCC3(CC2)C2=C(CC(C)(C)CC2=O)Nc2n[nH]cc23)n1

≥ 7.00
6.00 to 7.00
≥ 7.00
